- SUBJECT_OF_TEST: IDH1 R132H (Homo sapiens, UniProt O75874, R132H)
- Sequence (O75874 whole entry R132H): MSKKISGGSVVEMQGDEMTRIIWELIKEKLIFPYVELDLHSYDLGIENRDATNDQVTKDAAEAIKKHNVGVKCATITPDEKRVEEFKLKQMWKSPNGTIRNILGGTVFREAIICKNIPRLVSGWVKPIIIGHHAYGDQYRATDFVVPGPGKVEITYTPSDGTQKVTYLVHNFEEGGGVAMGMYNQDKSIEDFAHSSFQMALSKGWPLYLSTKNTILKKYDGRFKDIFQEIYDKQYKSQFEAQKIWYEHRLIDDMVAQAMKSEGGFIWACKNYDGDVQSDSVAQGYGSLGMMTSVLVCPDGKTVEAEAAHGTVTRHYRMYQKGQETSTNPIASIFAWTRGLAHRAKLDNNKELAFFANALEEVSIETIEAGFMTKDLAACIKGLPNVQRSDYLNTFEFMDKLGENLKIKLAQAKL
- ASSAY_PROTOCOL: Assay for IDH1 R132H inhibitors (NADPH/aKG, resazurin detection)
- Assay type: biochemical
- TEST_SETTINGS: enzyme assay of Example 12; read-out: IDH1R132H IC50
READOUT: IC50

Here are 5 compounds together with their reported answers.
COCCC(=O)N1CCN(c2nc(C3CC3)c(Nc3ccnc(C(=O)OC)c3)cc2C#N)C[C@H]1C [Compound 683]; < 500 nM
N#Cc1cc(-c2cccc3cnccc23)c(C2CC2)nc1N1CCN(C(=O)C2CC2)CC(F)C1 (stereo not shown) [Compound 477]; 500 to 1000 nM
C=Cc1cc(-c2cc(C#N)c(N3CCN(C(=O)CO)[C@H](C)C3)nc2C2CC2)ccn1 [Compound 632]; < 500 nM
C=Cc1ccnc(Nc2cc(C#N)c(N3CCN(C(=O)CCOC)[C@H](C)C3)nc2C2CC2)n1 [Compound 736]; < 500 nM
C=Cc1cnnc(-c2c(C3CC3)nc(N3CCN(C(=O)OC(C)(C)C)[C@H](C4CC4)C3)c(C#N)c2C)c1 [Compound 771]; < 500 nM

Data request: Assign IC50 to the following record: C=C(C)C(=O)Nc1cccc(-c2cc(C#N)c(N3CCN(C(=O)CCOC)[C@H](C)C3)nc2C2CC2)c1 [Compound 449]
Data returned: 500 to 1000 nM

Data request: Assign IC50 to the following record: COCCC(=O)N1CCN(c2nc(C3CC3)c(-c3cccc(N(C)C(=O)C(F)F)c3)cc2C#N)C[C@H]1C [Compound 455]
Data returned: 500 to 1000 nM

---

- Tested on: HT1080 cells
- ASSAY_PROTOCOL: Cellular assay for IDH1m inhibitors: inhibition of 2-HG production (LC-MS, 48 hours) in HT1080 cells
- Assay type: cell-based
- TEST_SETTINGS: Homo sapiens, HT-1080, read-out: HT1080 IC50 (μM)
READOUT: IC50

Data request: Assign IC50 to the following record: C=Cc1cc(-c2cc(C#N)c(N3CCN(C(=O)CCOP(=O)(O)O)[C@H](C4CC4)C3)nc2C2CC2)ccn1 [Compound 810, phosphate]
Data returned: < 0.5 µM

---

- Tested on: U87MG cells
- ASSAY_PROTOCOL: Cellular assay for IDH1m inhibitors: inhibition of 2-HG production (LC-MS, 48 hours) in U87MG cells
- Format: cell-based
- TEST_SETTINGS: Homo sapiens, U-87 MG, read-out: U87R132H IC50 (μM)
READOUT: IC50

Data request: Assign IC50 to the following record: C=Cc1cc(-c2cc(C#N)c(N3CCN(C(=O)CCOP(=O)(O)O)[C@H](C4CC4)C3)nc2C2CC2)ccn1 [Compound 810, phosphate]
Data returned: < 0.5 µM

---

- SUBJECT_OF_TEST: IDH1 R132H (Homo sapiens, UniProt O75874, R132H)
- ASSAY_PROTOCOL: Assay for IDH1 R132H inhibitors (NADPH/aKG, resazurin detection)
- Format: biochemical
- TEST_SETTINGS: Table 3; enzyme assay, 50 minutes at room temperature; read-out: IC50 (IDH1 R132H Inhibition)
- Protocol: Assays were conducted in a volume of 76 μl assay buffer (150 mM NaCl, 10 mM MgCl2, 20 mM Tris pH 7.5, 0.03% bovine serum albumin) as follows in a standard 384-well plate: To 25 ul of substrate mix (8 uM NADPH, 2 mM aKG), 1 μl of test compound was added in DMSO. […] The conversion of resazurin to resorufin was detected by fluorescent spectroscopy at Ex544 Em590 c/o 590.
READOUT: IC50

CC(C)c1nc(N2CCN(C(=O)Cc3ccccc3)C(C)C2)c(C#N)cc1-c1ccccc1 (stereo in doubt) [Compound 145]; 1 to 5 µM
COCCC(=O)N1CCN(c2nc(C(C)C)c(-c3ccc4c(c3)OCCO4)cc2C#N)C[C@H]1C; 1 to 5 µM
CC(C)c1nc(N2C[C@@H](C)N(C(=O)Cc3ccccc3)[C@@H](C)C2)c(C#N)cc1-c1ccccc1; 1 to 5 µM

// moving on: another record for IC50
Data request: Assign IC50 to the following record: `COCCC(=O)N1CCN(c2nc(C(C)C)c(OCc3ccccc3)cc2C#N)C[C@H]1C`
Data returned: 1 to 5 µM
